tested on: SN12C; experiment: AUC of dose-response viability curve, drug alone (arbitrary (AUC of normalised viability)); higher = less growth inhibition; details: treatment: drug alone; 5 days
# reported AUC of dose-response viability curve; entries follow
# answer = number (no unit)

Consider the compound COc1ccc(S(=O)(=O)N(C(C)=O)c2ccccc2/C=C/c2cc[n+]([O-])cc2)cc1 [HMN-214] and give its measured AUC of dose-response viability curve. 2.47

# iterate: Cn1cnc(-c2cc3nccc(Oc4ccc(NC(=S)NC(=O)Cc5ccccc5)cc4F)c3s2)c1 [MGCD-265] 3.45

Similarly, O=C(NCc1ccccc1)c1csc(Nc2ccncn2)n1 [Thiazovivin] ? 3.58

Another compound to check: CC1(C)CCC(c2ccc(Cl)cc2)=C(CN2CCN(c3ccc(C(=O)NS(=O)(=O)c4ccc(N[C@H](CCN5CCOCC5)CSc5ccccc5)c(S(=O)(=O)C(F)(F)F)c4)cc3)CC2)C1 [ABT-263 (Navitoclax)] 3.21

COCC[n+]1c2c(n(Cc3cnccn3)c1C)C(=O)c1ccccc1C2=O [YM155] , same question. 0.567

Then this compound:
What value of measured AUC of dose-response viability curve is listed for `CCc1cc2c(cc1N1CCC(N3CCOCC3)CC1)C(C)(C)c1[nH]c3cc(C#N)ccc3c1C2=O` ? 3.28
